# credit: PubChem BioAssay (NCI)

- System: T-47D breast
- TEST SUMMARY: NCI tumour cell line growth inhibition, 48 h; in the data active = GI50 below about 0.43 µM; inactive = the rest
Select the matching outcome among label 1 for active, label 0 for inactive

Can you look up the reported call for COc1cc(C)c(C(=O)O[C@H]2[C@H](O[C@H]3[C@@H](O)COC(O[C@H]4C[C@H]5[C@@H]6CC=C7C[C@@H](O)CC[C@]7(C)[C@H]6CC[C@]5(C)[C@H]4[C@H](C)C(=O)CCC(C)C)[C@@H]3OC(C)=O)OC[C@@H](O)[C@@H]2O)c(C)c1 (stereo partly specified) for me?
label 1

Can you look up the reported call for CCN1CCN(c2nc(NNC(=O)Cc3ccccc3)nc(N3CCN(C(c4ccccc4)c4ccccc4)CC3)n2)CC1 for me?
label 0

Can you look up the reported call for Cn1nc(C(F)(F)F)c(-c2ccc(Cl)c(C(F)(F)F)c2)c1-c1ccc(OCc2ccc(Cl)cc2)cc1O for me?
label 0

Can you look up the reported call for CCSc1oc(-c2ccccc2)nc1[P+](c1ccccc1)(c1ccccc1)c1ccccc1 for me?
label 1

Can you look up the reported call for COc1ccc(-c2nn(-c3cccc(Cl)c3)cc2C=C(C#N)C#N)cc1 for me?
label 0

Can you look up the reported call for O=C1NC(=O)/C(=C/C=C/c2ccccc2)S1 for me?
label 0
